# Target System: Transient receptor potential cation channel subfamily M member 8 (Rattus norvegicus)
# Sequence (Q8R455 whole entry): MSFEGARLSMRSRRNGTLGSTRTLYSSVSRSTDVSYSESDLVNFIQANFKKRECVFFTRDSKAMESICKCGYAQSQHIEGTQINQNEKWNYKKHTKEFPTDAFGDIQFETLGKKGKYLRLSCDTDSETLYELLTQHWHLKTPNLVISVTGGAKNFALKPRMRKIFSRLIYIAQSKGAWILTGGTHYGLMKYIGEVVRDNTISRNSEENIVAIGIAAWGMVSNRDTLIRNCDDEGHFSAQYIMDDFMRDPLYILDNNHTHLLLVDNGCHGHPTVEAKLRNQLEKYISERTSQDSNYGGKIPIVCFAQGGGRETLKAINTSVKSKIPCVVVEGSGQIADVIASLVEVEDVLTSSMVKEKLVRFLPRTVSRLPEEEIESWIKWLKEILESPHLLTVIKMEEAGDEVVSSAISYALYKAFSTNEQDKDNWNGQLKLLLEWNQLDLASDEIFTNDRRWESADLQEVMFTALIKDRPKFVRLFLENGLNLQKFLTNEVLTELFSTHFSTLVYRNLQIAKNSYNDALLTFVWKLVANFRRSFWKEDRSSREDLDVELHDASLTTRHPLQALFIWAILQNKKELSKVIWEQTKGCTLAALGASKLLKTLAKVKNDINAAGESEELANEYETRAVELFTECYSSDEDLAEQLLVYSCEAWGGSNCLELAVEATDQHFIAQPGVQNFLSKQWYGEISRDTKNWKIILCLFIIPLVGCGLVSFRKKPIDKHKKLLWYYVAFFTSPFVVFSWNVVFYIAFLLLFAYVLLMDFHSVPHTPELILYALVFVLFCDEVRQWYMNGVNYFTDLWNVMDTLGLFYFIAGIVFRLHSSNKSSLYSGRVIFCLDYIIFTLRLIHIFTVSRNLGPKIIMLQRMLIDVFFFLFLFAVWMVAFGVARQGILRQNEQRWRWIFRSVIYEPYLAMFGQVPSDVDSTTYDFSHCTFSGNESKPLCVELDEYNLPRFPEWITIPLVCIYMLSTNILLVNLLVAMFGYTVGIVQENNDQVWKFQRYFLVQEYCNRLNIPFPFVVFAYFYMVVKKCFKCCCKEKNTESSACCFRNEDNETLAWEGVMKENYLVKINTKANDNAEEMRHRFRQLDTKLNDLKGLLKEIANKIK
# Assay Summary: Agonist activity at rat TRPM8 expressed in HEK293 cells assessed as induction of intracellular Ca2+ level by Fluo-4-AM dye based spectrofluorimetry
We begin with a simple list: items and their reported EC50.
Measured Parameter: EC50

| Smiles Entry | Measured Parameter | Result |
| --- | --- | --- |
| CC1=C(c2cccc([N+](=O)[O-])c2)NC(=O)N(c2ccccc2O)C1 | EC50 | > 10000 nM |
| O=C1NC(c2cccc([N+](=O)[O-])c2)=CCN1c1ccccc1Cl | EC50 | 890 nM |
| O=C1NC(c2cccc([N+](=O)[O-])c2)=CCN1c1ccccc1I | EC50 | 1200 nM |
| Cc1ccc(O)c(N2CC=C(c3cccc([N+](=O)[O-])c3)NC2=O)c1 | EC50 | 140 nM |

The measured values listed here are drawn from ChEMBL document CHEMBL3421598.
